- Tested on: SN12C
- PROTOCOL SUMMARY: NCI tumour cell line growth inhibition, 48 h
Activity calls are given as the source filed them. No stated cut-off is given here; in the data, active = GI50 up to about 1.1 µM and inactive = higher.
PROPERTY: GI50

> print(dat)
                                   molecule       measured.value
1  COc1ccc(/C=N/Nc2nc3ccccc3c(=O)n2-c2ccccc2)cc1  > 100 µM (inactive)
2  C=CCNC(=O)C(C)C1CCC2(C)C=CC(=O)C(C)=C2C1O (stereo unspecified)  > 100 µM (inactive)
3  O=C(Cn1cc(F)c(=O)[nH]c1=O)C12CC3CC(CC(C3)C1)C2  > 100 µM (inactive)
4  N#CC1C=Cc2ccccc2N1C(=O)Oc1ccccc1 (stereo unspecified)   45.9 µM (inactive)
5  O=C(Nc1ccccc1C(=O)NCc1ccccc1)/C(=C/c1ccccc1)NC(=O)c1ccccc1  > 100 µM (inactive)
6   N#C/C(C(=O)Nc1ccc(Cl)cc1)=C(/N)N1CCOCC1  > 100 µM (inactive)

====

- Tested on: OVCAR-5
- PROTOCOL SUMMARY: NCI tumour cell line growth inhibition, 48 h
Active and inactive are the calls of the source. No stated cut-off is given here; in the data, active = GI50 up to about 1.1 µM and inactive = higher.
PROPERTY: GI50

> print(dat)
                                   compound  subject.of.test       measured.value
1        O=C1OC(c2ccccc2)=N/C1=C\c1cn[nH]n1          OVCAR-5  > 100 µM (inactive)
2  O=C1c2cscc2C(=O)c2c(OCc3ccccc3)ccc(OCc3ccccc3)c21          OVCAR-5  > 100 µM (inactive)
3  COc1cc(/C=C2\CCC(C)C3=C2NC(=S)NC3c2cc(OC)c(OC)c(OC)c2)cc(OC)c1OC (stereo not given)          OVCAR-5  > 100 µM (inactive)
4       O=C1OC(c2ccccc2)=N/C1=C\c1ccc(F)cc1          OVCAR-5  > 100 µM (inactive)
5  O=C1NC(=N/c2ccccc2)/C(=N\c2ccccc2)N1c1ccccc1          OVCAR-5     18 µM (inactive)

====

- Tested on: 786-0
- PROTOCOL SUMMARY: NCI tumour cell line growth inhibition, 48 h
Active and inactive are the calls of the source. Cut-off read from the data, not from the text of the source: active = GI50 up to about 1.1 µM and inactive = higher.
# GI50 annotations
PROPERTY: GI50

> print(dat)
                                    molecule       measured.value
 1  O=C(O)CCC1(c2ccccc2)NC(=O)NC1=O (stereo not given)  > 100 µM (inactive)
 2  Cc1ccc(S(=O)OC23CC4CC(CC(C4)C2)C3)cc1 (stereo not given)  > 100 µM (inactive)
 3  Cc1c(C)c2c(c(N)c1C#N)C(=O)N(Cc1ccc(S(N)(=O)=O)cc1)C2=O   16.8 µM (inactive)
 4  COC(=O)C1=C(C(=O)OC)SC(=C(/N=N/c2ccccc2)c2ccccc2)S1   50.8 µM (inactive)
 5      Nn1c(=O)n(Cc2ccccc2)n(-c2ccccc2)c1=O  > 100 µM (inactive)
 6  COc1ccc2c3c1O[C@H]1C(O)CCC4(O)[C@@H](C2)NCC[C@]314 (stereo not given in full)  > 100 µM (inactive)
 7  COc1ccc(/C=N/Nc2nc(C)c3c(n2)Nc2ccccc2NC3=O)cc1  > 100 µM (inactive)
 8         Cc1ccc(NC(=O)/C=C/c2ccccc2)c(C)c1   74.5 µM (inactive)
 9  O=C1CC(c2ccccc2Cl)Oc2ccccc21 (stereo not given)     29 µM (inactive)
10               CCNCCCNc1c2ccccc2nc2ccccc12    0.552 µM (active)
11            COc1cccc(-c2nc(O)c3ccccc3n2)c1   14.9 µM (inactive)
12  CC(=O)OCc1c2ccccc2c(C)c2c1cc(F)c1ccccc12   30.1 µM (inactive)
13  O=C(Nn1c(-c2ccccc2)nc2ccccc2c1=O)c1ccc(O)cc1  > 100 µM (inactive)
14    COC1=CC(=O)c2c(c(-c3nc(C)cs3)cn2C)C1=O   18.1 µM (inactive)
15  COC(=O)[C@]1(C)CCCC2(C)C1CC[C@H]1C=C(C)[C@H]3CCC12C3 (stereo not given in full)  > 100 µM (inactive)
16  NC1=NC(=O)/C(=C/c2ccccc2[N+](=O)[O-])C(N)=N1  > 100 µM (inactive)
17  [O-]c1on[n+]2c1c(Nc1ccc(Cl)cc1)nc1ccccc12  > 100 µM (inactive)
18    Cc1cc(Cl)ccc1NC(=O)/C(Cl)=C(/Cl)C(=O)O   23.1 µM (inactive)
19  COC(=O)C1CC2(c3ccccc3)C(=O)c3ccccc3N2O1 (stereo not given)   35.4 µM (inactive)
20  CC(=O)Oc1cc(Cl)c(C)c2c1[C@H]1CC[C@]3(C)[C@@H](OC(C)=O)CC[C@H]3[C@@H]1CC2  > 100 µM (inactive)
21  Cn1nc(-c2ccccc2)c(C(=O)/C=C/c2ccc(F)cc2)c(N2CCOCC2)c1=O     16 µM (inactive)
22               CCOC(=O)C(=O)Nc1ccccc1C(C)C  > 100 µM (inactive)
23  CCOC(=O)[C@H](O)[C@@H](O)C(=O)NCc1ccc(C(=O)c2ccccc2)cc1  > 100 µM (inactive)
24  CCOC(=O)c1csc(-c2nc(CCNC(=O)c3ccccc3)sc2Cl)n1  > 100 µM (inactive)
25         O=C1NC(N2CCOCC2)=N/C1=C\c1ccccc1O  > 100 µM (inactive)
26         N=c1oc2cc(O)ccc2cc1C(=O)Nc1ccccn1   16.4 µM (inactive)
27  CCN(CC)CCCNc1nncc2c(C)c3[nH]c4ccccc4c3cc12    0.667 µM (active)
28        CC(=O)CC(=O)Nc1ccc(OS(N)(=O)=O)cc1  > 100 µM (inactive)
29         COc1ccc2nc3ccc(OC)cc3c(SCCCl)c2c1   6.24 µM (inactive)
30  Cc1cc(S(=O)(=O)N=C2N(Cc3ccccc3)CCN2Cc2ccccc2)c(S)cc1Cl  > 100 µM (inactive)
31   C/C(=N\Nc1nc2ccccc2[nH]1)c1cc2ccccc2cn1    0.048 µM (active)
32  COC(=O)C1(C)CC2C(C)(CCC3(C)C4=CC=C5C(=CC(=O)C(O)=C5C)C4(C)CCC23C)CC1O (stereo not given)    0.226 µM (active)
33  Cc1ccc2c(c1)C(=O)/C(=C1/CCc3ccc(C)cc31)C2     46 µM (inactive)
34  CS(=O)(=O)OCCN(CCOS(C)(=O)=O)c1ccc(/C=N/c2ccc(-c3csc(COc4ccccc4)n3)cc2)cc1    0.429 µM (active)
35  CC1CCCP(=O)(c2ccccc2)CC1 (stereo not given)  > 100 µM (inactive)
36         COc1ccc2c(c1)C(N)=C(c1ccccc1)C2=O   80.4 µM (inactive)
37                     NCc1nnn(Cc2ccccc2)c1N  > 100 µM (inactive)
38      O=C1CC(=O)NC(NNS(=O)(=O)c2ccccc2)=N1  > 100 µM (inactive)
39  O=C1c2cc3c(cc2CC12Cc1cc4c(cc1C2=O)CCC4)CCC3  > 100 µM (inactive)
40  CSc1nc(-c2cc3c(c(SC)n2)CCCCC3)cc2c1CCCCC2  > 100 µM (inactive)
41  COc1ccc2[nH]c3c([N+](=O)[O-])ccc(NCCCN(C)C)c3/c(=N/CCCN(C)C)c2c1     0.94 µM (active)
42  COC(=O)C(C(=O)C(=O)NC1Nc2ccc(C)cc2S1)c1nc2ccc(Cl)cc2nc1O (stereo not given)  > 100 µM (inactive)
43  CC1C2CC(CC(=O)N2)C1(C)C (stereo not given)  > 100 µM (inactive)
44  CC1(C)C=C(N2CCN(C3=CC(C)(C)NC(C)(C)C3)CC2)CC(C)(C)N1  > 100 µM (inactive)
45  COc1ccc2cc(C(C)C(=O)N3C(=O)OCC3(C)C)ccc2c1 (stereo not given)  > 100 µM (inactive)

====

- Tested on: U-251
- PROTOCOL SUMMARY: NCI tumour cell line growth inhibition, 48 h
The source made the active and inactive calls. Cut-off read from the data, not from the text of the source: active = GI50 up to about 1.1 µM and inactive = higher.
Possible outcomes: true for active, false for inactive

> print(dat)
                                   compound  category.label
1       O=C1OC(c2ccccc2)=N/C1=C\c1ccc(F)cc1           false
2  CCN(CC)CCCNc1nccc2c(C)c3[nH]c4ccncc4c(=O)c3cc12           false
3  CCOC(=O)CCC(=O)C1c2cccc(O)c2C(=O)c2c(O)cc(C)cc21 (stereo not given)            true
4  CCOC(=O)C1=C(C)NC(=S)NC1c1ccccc1 (stereo not given)           false
5  Cc1ccc(NC(=O)/C(CC(=O)c2c[n+]([O-])c3ccccc3[n+]2[O-])=N\NC(=O)C[n+]2ccccc2)cc1           false
